- assay: S. cerevisiae growth modulation with rapamycin, primary screen, strain BY4716, OD600, 96 h (AID 1091); further: test concentration not given here
- condition_context: higher = more signal, called active from +8 up or from −8 down
measurement_kind: z-score
Numbers only.

[[record]]
molecule = "CCOC(=O)C1=CCC(c2ccc([N+](=O)[O-])cc2)N(S(=O)(=O)c2ccc(C)cc2)C1 (centres undefined)"
measurement_kind = "z-score"
meas_value = 4.61

[[record]]
molecule = "COCCOC(=O)N1C(=O)[C@@]2(c3cc(C#CCNC(N)=O)ccc31)[C@H](c1ccccc1OCCO)N1[C@H](c3ccccc3)[C@H](c3ccccc3)OC(=O)[C@H]1[C@@H]2C(N)=O"
measurement_kind = "z-score"
meas_value = 3.25

[[record]]
molecule = "N#Cc1ccc(NN2C(C(O)C3CCCCC3)C=CC3C(=O)N(c4ccccc4)C(=O)C32)cc1 (centres undefined)"
measurement_kind = "z-score"
meas_value = 2.46

[[record]]
molecule = "O=C(CS)NCCCCCCNC(=O)[C@H]1C[C@H]2C(=O)N3CCC[C@H]3C(=O)N2[C@H]1c1cccc(OCCO)c1"
measurement_kind = "z-score"
meas_value = 0.0927

[[record]]
molecule = "COC(=O)c1ccc(C(O)C2C=CC3C(=O)N(c4ccccc4)C(=O)C3N2Nc2ccc(C#N)cc2)o1 (centres undefined)"
measurement_kind = "z-score"
meas_value = 0.989


Kindly give each listed record's z-score.
1. COc1ccc(C#Cc2ccc3c(c2)[C@]2(C(=O)N3)[C@H](C(=O)NC[C@H](O)c3ccccc3)[C@H]3C(=O)O[C@H](c4ccccc4)[C@H](c4ccccc4)N3[C@@H]2c2ccccc2OCCO)cc1
2. O=C1N(CCS(=O)(=O)c2ccccc2)Cc2ccccc2C[C@]12N=C(c1ccc(OCCCO)cc1)O[C@@H]2c1ccccc1
3. COc1ccc([Si](C)(C)[C@@H]2[C@@H](CCn3cc([C@H](O)c4ccccc4)nn3)O[C@]3(C(=O)N(Cc4cccc(N5CCOC5=O)c4)c4ccccc43)[C@H]2C)cc1
4. CCOC(=O)C[C@H]1[C@H](OC(=O)c2ccc(-c3ccccc3)cc2)[C@@H](NC(=O)c2ccc3ccccc3c2)c2cc(OCCCO)ccc2N1C(=O)Cc1ccc(OC)cc1
5. COc1cc(C(O)C2C=CC3C(=O)N(c4ccccc4)C(=O)C3N2Nc2ccc(C#N)cc2)cc(OC)c1OC (centres undefined)
6. CCCN1C(=O)[C@]2(COC(c3ccc(OCCCO)cc3)=N2)Cc2ccccc21
7. [N-]=[N+]=NCc1ccccc1[C@@H]1OC(c2ccc(OCCCO)cc2)=N[C@]1(Cc1ccccc1)C(=O)N1CCCCC1

Reply text:
[4.39, 4.94, 3.61, -0.115, 1.75, -1.35, 1.66]

Hey, can you go through the list below and give me z-score for every item?
1. COC(=O)[C@@]1(Cc2ccc(OC)cc2)[C@H]2c3cc(C(=O)N4CCCC4)n(CCc4c[nH]c5cc(F)ccc45)c3C[C@H]2CN1C(=O)c1ccccc1
2. CO[C@H]1O[C@H](CO)[C@@H](OC(=O)Nc2ccc(Oc3ccccc3)cc2)[C@H](OC(=O)Nc2ccccc2)[C@H]1OC(=O)Nc1ccccc1

Reply text:
[1.75, -1.75]

----------
Please go through the items and note down their z-score.
- assay: MM1S cell viability effects, profiling panel, calcein-AM fluorescence, 48 h, basal (AID 1165);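 further: viability of MM1S multiple myeloma cells under basal unstimulated conditions; test concentration not given here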
- condition_context: higher = more signal

These solved cases illustrate the format of a correct answer.
[[record]]
molecule = "C=CCC(OC(C)=O)[C@@H]1[C@@H](N(Cc2cccc3ccccc23)C(=O)c2ccc(C)cc2)c2cc(OCCCO)ccc2N1C(=O)Cc1ccc(OC)cc1 (stereo partly specified)"
meas_value = 0.621

[[record]]
molecule = "C=CCC(OC(C)=O)[C@@H]1[C@@H](N(Cc2cc3ccccc3o2)C(=O)c2ccc(C)cc2)c2cc(OCCCO)ccc2N1C(=O)c1ccc2ccccc2c1 (stereo partly specified)"
meas_value = 1.14

[[record]]
molecule = "C=C[C@H](COC(C)=O)N(Cc1ccc(OC(C)=O)c(OC)c1)S(=O)(=O)c1ccc(Br)cc1"
meas_value = 0.594

[[record]]
molecule = "COCCOC(=O)N1C(=O)[C@@]2(c3cc(C#CCNC(N)=O)ccc31)[C@H](c1ccc(OCCO)cc1)N1[C@H](c3ccccc3)[C@H](c3ccccc3)OC(=O)[C@H]1[C@@H]2C(=O)N1CCc2cc(OC)c(OC)cc2C1"
meas_value = 0.451

[[record]]
molecule = "CCN(CC)c1ccc(N2CC=CC34O[C@@H]5/C=C\\CCCOC(=O)C5[C@H]3C(=O)N(C(CO)C(C)C)[C@@H]4C2=O)cc1 (stereo partly specified)"
meas_value = 0.905


Proceeding to the next molecule to report its z-score.
Inquiry: // fetch z-score given entry CC(C)CNC(=O)[C@@]1(c2ccc([N+](=O)[O-])cc2)CC(=O)N(CC23CC4CC(CC(C4)C2)C3)[C@@H]1c1ccc(CO)cc1
Reply text: -2.68

----------
- assay: HepG2 liver cancer cell viability effects, profiling panel, resazurin fluorescence, 24 h, PK04 Diversity Set (AID 1172); further: test concentration not given here
- condition_context: higher = more signal
Provide the reported z-score of each item.
Answers are plain numbers.

[[record]]
molecule = "CC(C)NC(=O)[C@@H]1c2ccccc2C(=O)N(Cc2ccccc2Cl)[C@H]1c1ccc(CO)cc1"
meas_value = 1.6

[[record]]
molecule = "COCCOC(=O)N1C(=O)[C@@]2(c3cc(C#CCNC(N)=O)ccc31)[C@H](C(=O)N1CCN(c3ncccn3)CC1)[C@H]1C(=O)O[C@H](c3ccccc3)[C@H](c3ccccc3)N1[C@@H]2c1ccccc1OCCO"
meas_value = 0.841

[[record]]
molecule = "CCOC(=O)C1=CCC(c2ccc(C#N)cc2)N(S(=O)(=O)c2ccc(C)cc2)C1 (centres undefined)"
meas_value = -0.688

[[record]]
molecule = "CC(=O)NCCCC[C@@H]1NC(=O)[C@@H]2C[C@H](C(=O)NCCCCN(C)C)[C@H](c3ccc(O)cc3)N2C1=O"
meas_value = 0.801

[[record]]
molecule = "CC(C)C(=C=CC[C@H](O)c1cccc(OCCO)c1)C[C@H](O)COCc1ccccc1"
meas_value = 0.685


Please give z-score, item by item, for the list that follows.
1. CC(=O)NCCCC[C@@H]1NC(=O)[C@H]2C[C@@H](C(=O)NCCCCCC[N+](C)(C)C)[C@@H](c3cccc(OCCO)c3)N2C1=O
2. COC(=O)[C@@]1(Cc2ccccc2N=[N+]=[N-])COC(c2ccc(OCCCO)cc2)=N1
3. CC(C)(C)OC(=O)CC[C@@]1(C(=O)NCCN2CCOCC2)N=C(c2ccc(OCCCO)cc2)O[C@@H]1c1ccccc1
4. C=CCNC(=O)[C@H]1[C@@H]2C(=O)O[C@@H](c3ccccc3)[C@@H](c3ccccc3)N2[C@@H](c2ccc(O)cc2)[C@]12C(=O)N(C(=O)OCCOC)c1ccc(C#CCCO)cc12
5. CCOC(=O)C[C@H]1[C@H](OC(=O)c2ccc(-c3ccccc3)cc2)[C@@H](NC(=O)c2ccc3ccccc3c2)c2cc(OCCCO)ccc2N1C(=O)Cc1ccc(OC)cc1

Reply text:
1: 1.04; 2: -0.799; 3: -0.781; 4: -0.37; 5: 0.339

Quick one: give me z-score for each item below, same order please.
1. Cc1ccc([C@H]2[C@H](C(=O)O)[C@H](Sc3ccccc3)[C@@H](C(C)C)N2S(=O)(=O)c2ccc(C)cc2)cc1
2. COc1ccc(C(=O)Nc2cccc(CN3C(=O)[C@@]4(O[C@@H](CCn5cc(CCO)nn5)[C@H]([Si](C)(C)c5ccc(OC)cc5)[C@H]4C)c4ccccc43)c2)cc1
3. COC(=O)[C@]1(Cc2ccccc2N=[N+]=[N-])N=C(c2ccc(OCCCO)cc2)O[C@@H]1c1ccccc1N=[N+]=[N-]

Reply text:
1. -1.15
2. -5.75
3. -3.41

Inquiry: Return z-score (reported value) for this molecule: O=C1C2C=CC(C(O)c3ccc(F)cc3)N(Nc3ccccc3)C2C(=O)N1c1ccccc1 (centres undefined)
Reply text: -1.24

----------
- target_of_assay: NADPH oxidase 2 (Homo sapiens)
- assay: NOX2-dependent H2O2 signal modulators, primary screen, NOX inhibitor project, cell-based, HEK293-NOX2, PMA-stimulated, Amplex Red fluorescence (AID 1159); further: test concentration not given here
- condition_context: 45 min, higher = more signal, called active from +8 up or from −8 down
Would you mind telling me the reported z-score of each entry?
One number for each entry.

[[record]]
compound = "O=C/C=C/c1ccc(Cl)cc1"
meas_value = -0.506

[[record]]
compound = "COCCOC(=O)N1C(=O)[C@@]2(c3cc(C#CCNC(N)=O)ccc31)[C@H](c1ccc(O)cc1)N1[C@H](c3ccccc3)[C@H](c3ccccc3)OC(=O)[C@H]1[C@@H]2C(=O)Nc1nc2ccccc2s1"
meas_value = 0.806

[[record]]
compound = "C=CC(=C)C1=CCO[C@@H]1[C@H]1CCCN1S(=O)(=O)c1ccccc1[N+](=O)[O-]"
meas_value = 0.516

[[record]]
compound = "CCOC(=O)C[C@H]1[C@H](OC(=O)c2ccc(C(=O)c3ccccc3)cc2)[C@@H](NC(=O)C2CCCCC2)c2cc(OCCCO)ccc2N1C(=O)c1ccccc1"
meas_value = 0.469

[[record]]
compound = "Cc1ccc([C@H]2[C@H](C(=O)O)[C@H](Sc3ccccc3)[C@@H](C(C)C)N2S(=O)(=O)c2ccc(C)cc2)cc1"
meas_value = 1.01

[[record]]
compound = "C=C(C(=O)CC[C@H](OC(C)=O)c1ccc(OCCO)cc1)C(C)C"
meas_value = -3.44

[[record]]
compound = "O=C1O[C@@H](c2ccccc2)[C@@H](c2ccccc2)N2[C@@H](c3ccc(OCCO)cc3)[C@]3(C(=O)Nc4ccccc43)[C@@H](C(=O)Nc3nc4ccccc4s3)[C@H]12"
meas_value = 1.68

[[record]]
compound = "CCCCCN1CC=CC23O[C@@H]4/C=C\\CCC(C)OC(=O)C4[C@H]2C(=O)N(CCCCCO)[C@@H]3C1=O (some centres not stated)"
meas_value = 1.03

[[record]]
compound = "O=C(NCc1ccccc1)[C@]1(CCS(=O)(=O)c2ccccc2)N=C(c2ccc(OCCCO)cc2)O[C@@H]1c1ccccc1"
meas_value = 0.0459

[[record]]
compound = "COc1ccc(CCNC(=O)[C@@]2(c3ccc([N+](=O)[O-])cc3)CC(=O)N(CC34CC5CC(CC(C5)C3)C4)[C@@H]2c2ccc(CO)cc2)cc1"
meas_value = -0.956


Value sought for every listed compound: z-score.
1. COCCOC(=O)N1C(=O)[C@@]2(c3cc(C#CCNC(N)=O)ccc31)[C@H](c1ccc(O)cc1)N1[C@H](c3ccccc3)[C@H](c3ccccc3)OC(=O)[C@H]1[C@@H]2C(=O)NC[C@H](O)c1ccccc1
2. O=C1C2C=CC(C(O)c3ccc(B(O)O)cc3)N(Nc3ccccc3)C2C(=O)N1c1ccccc1 (configuration not stated)
3. C=CCC(OC(C)=O)[C@@H]1[C@@H](N(Cc2ccc(-c3cccc(C(F)(F)F)c3)o2)C(=O)c2ccc(C)cc2)c2cc(OCCCO)ccc2N1C(=O)c1ccc(-c2ccccc2)cc1 (some centres not stated)
4. CC(=O)C1=CCC(c2ccccc2)N(S(=O)(=O)c2ccc(C)cc2)C1 (configuration not stated)
5. C=C[C@H](C)[C@@H](O)c1ccc(O)c2ccccc12
6. O=C1OCCC=C[C@H]2OC34C=CCN(Cc5ccccc5)C(=O)[C@H]3N(CCCO)C(=O)[C@@H]4C12 (some centres not stated)
7. CCN(CC)c1ccc(N2CC=CC34O[C@@H]5C=CCCOC(=O)C5[C@H]3C(=O)N(CCCCCO)[C@@H]4C2=O)cc1 (some centres not stated)

Reply text:
1.01
-3.57
-3.28
-0.179
-5.28
-1.96
-0.11
